Examples of binders with documented IC50 follow.
Target: full-length beta-Catenin (Uniprot ID P35222) (Homo sapiens (Human)) (UniProt P35222)
Assay: fluorescence polarization competition; peptide titrated against 10 nM full-length beta-catenin + 10 nM 5FAM-TCF4(10-53)
Starred links: 1 amine or outer side, 2 acyl side, 3 side chain; linkers in the order of their positions; H or OH if unused. Positions of bridges follow the written chain, without caps; N, C: chain ends. Non-standard residues stand in square brackets, D forms with d. Primed or numbered codes have the meaning given here. PyrS2″ = (S)-3-amino-1-((pent-4-en-1-yloxy)carbonyl)pyrrolidine-3-carboxylic acid (stapling residue), C=CCCCOC(=O)N1CC[C@@](N[*:1])(C(=O)[*:2])C1; B5(4) = 2,2-bis(4-pentenyl)glycine = 2-amino-2-(pent-4-en-1-yl)hept-6-enoic acid (stitching residue), C=CCCCC(CCCC=C)(N[*:1])C(=O)[*:2]; B5(3) = 2,2-bis(4-pentenyl)glycine (stitching residue), C=CCCCC(CCCC=C)(N[*:1])C(=O)[*:2]; Phe(2-Cl) = N[C@@H](Cc1ccccc1Cl)C(=O)O; Phe(2-Me) = Cc1ccccc1C[C@H](N)C(=O)O; Bta = N[C@@H](Cc1csc2ccccc12)C(=O)O; αAllylPro = C=CC[C@@]1(C(=O)O)CCCN1; tBuAla = CC(C)(C)C[C@H](N)C(=O)O; S8 = C=CCCCCCC[C@](C)(N)C(=O)O; Thr(ol) = C[C@@H](O)[C@H](N)CO

>  <binder>
Ac-[αAllylPro]DA[B5(4)]DDAA[Phe(2-Me)]A[S8]F[Bta]Q-NH2 (staple 1-4, 4-11; also: earlier-eluting staple isomer) [I-365]

>  <IC50, nM>
2720

$$$$
>  <binder>
Ac-[αAllylPro]D[tBuAla][B5(3)]DDAAFN[PyrS2″][Phe(2-Cl)][Bta][Thr(ol)] (staple 1-4, 4-11) [I-1082]

>  <IC50, nM>
5

$$$$

Measured values drawn from patent US20240116985A1 for this set.
